B1: glmS ribozyme (parent)
chain: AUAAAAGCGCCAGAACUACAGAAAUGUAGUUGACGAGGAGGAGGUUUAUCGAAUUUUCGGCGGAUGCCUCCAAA

Variants of: B1
Test: self-cleavage kobs at 10000 uM GlcN6P; higher = faster cleavage; RNA array
Conditions: with glucosamine-6-phosphate
This sample holds only a part of the variants without activity.
List of self-cleavage kobs at 10000 uM GlcN6P values.

Residue sequence	Measurement units	Relation qualifier	self-cleavage kobs at 10000 uM GlcN6P
AUAAAAGCGCCAGAACUACAGAAAUGUAGUUGACGAGGAGGAGGUUUAUCAAAUUUUCGGCCGAUGCCUCCAAA	s⁻¹	<	1e-05
AUAAAAGCGACAGAACUACAGAAAUGUAGUUGACGAGGAGCAGGUUUAUCGAAUUUUCGGCGGAUGCCUCCAAA	s⁻¹	<	1e-05
AUAAAAGCGCCAGUACUACAGAAAUGUAGUUGACGAGGAGGAGGUUUAUCGAAUCUUCGGCGGAUGCCUCCAAA	s⁻¹	=	0.0066
AUAAAAGCGCCAAAACUACAGAAAUGUAGUUGACGAGGAGGAGGCUUAUCGAAUUUUCGGCGGAUACCUCCAAA	s⁻¹	=	0.000343
AUAAAAUCGCCAGAACUACAGAAAUGUAGUUUACGAGGAGGAGGUUUAUCGAAUUUUCCGCUGAGGCCUCCAAA	s⁻¹	<	1e-05
AUAAAAGCACCUGAACUACAGAAAUGUAGUUGACGAGGAGGAGGUUUAUCGAAUUUUCGGCGGAUGCCUGCAAA	s⁻¹	<	1e-05
AUAAAAGCGACAGAACUACAGAAAUGUAGUUGACGAGGAGGAGGUUCAUCGAACUUUCGGCGGAUUCCUCCAAA	s⁻¹	<	1e-05
AUAAAAGCGCCACAACUACAGAAAUGUAGUUGACGAGGAGGGGGUUUAUCGAAUUUUCGGCGGAUGCCUCCAAA	s⁻¹	=	0.000123
AUAAACGCGCCAGAACUACAGAAAUGUAGUUGACGGGGAGGAGGUUUAUCGGAUUUUCGGCGGAUGCCUCCAAA	s⁻¹	<	1e-05
AUAAAAGCGCCAGAACUACAGAAAUGUAGUUUACGAGGAGGAGGUUUAUCGAAUAUUGGGCGGAUGCCUCCAAA	s⁻¹	=	0.000755
AUAAAAGCGCCAGAACUACAGAAAUGUAGUUGACGAGGAGGAGGUUUAUCGAAUUGUCGGCGGAUGCCACCAAA	s⁻¹	=	0.000176
